- TESTED TARGET: CDK9 (Homo sapiens, UniProt P50750)
- Construct: host or cells: HEK293
- Sequence (P50750 whole entry): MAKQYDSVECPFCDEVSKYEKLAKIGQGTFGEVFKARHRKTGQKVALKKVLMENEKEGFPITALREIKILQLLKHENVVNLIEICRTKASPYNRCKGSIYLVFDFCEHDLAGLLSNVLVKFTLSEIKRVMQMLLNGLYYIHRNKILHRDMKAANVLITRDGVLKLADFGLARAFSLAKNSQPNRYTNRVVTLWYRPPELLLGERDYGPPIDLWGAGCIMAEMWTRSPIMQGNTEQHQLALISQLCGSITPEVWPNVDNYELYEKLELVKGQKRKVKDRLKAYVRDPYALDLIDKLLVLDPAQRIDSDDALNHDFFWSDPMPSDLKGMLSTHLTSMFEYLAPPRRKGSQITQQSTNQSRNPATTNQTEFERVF
- ASSAY PROTOCOL: CDK9 HIBIT PQ (protein quantification), degradation
- Type: cell-based
- MEASUREMENT PARAMETERS: PQ = Protein Quantification
Reported values of DC50 for individual entries
REPORTED PROPERTY: DC50 (µM)

MOLECULE	TESTED TARGET	REPORTED PROPERTY	READOUT UNITS	DATA VALUE
Cc1c(S(=O)(=O)N(C)CCCN2CCC(c3ccc4c(c3)n(C)c(=O)n4C3CCC(=O)NC3=O)CC2)ccc(Nc2nc3c(OC(C)C)c(-c4cn[nH]c4)ncn3n2)c1F (racemic)	CDK9 (Homo sapiens, UniProt P50750)	DC50	µM	0.00113
CC(C)Oc1c(-c2cn[nH]c2)ncn2nc(Nc3ccc(S(=O)(=O)N(C)CCCN4CCC(c5ccc6c(c5)n(C)c(=O)n6C5CCC(=O)NC5=O)CC4)c(F)c3F)nc12 (racemic)	CDK9 (Homo sapiens, UniProt P50750)	DC50	µM	0.00048
CC(C)Oc1c(-c2cn[nH]c2)ncn2nc(N[C@H]3CCN(S(=O)(=O)c4cccc(CN5CCN(c6ccc7c(N8CCC(=O)NC8=O)nn(C)c7c6)CC5)c4)C[C@H]3C)nc12	CDK9 (Homo sapiens, UniProt P50750)	DC50	µM	0.0167
CC(C)Oc1c(-c2cn[nH]c2)ncn2nc(Nc3ccc(S(=O)(=O)c4cccc(N5CCN(CC6CCN(c7ccc8c(c7)CN(C7CCC(=O)NC7=O)C8=O)CC6)CC5)c4)cc3F)nc12 (racemic)	CDK9 (Homo sapiens, UniProt P50750)	DC50	µM	0.0117
CC(C)Oc1c(-c2cn[nH]c2)ncn2nc(Nc3ccc(S(=O)(=O)c4cccc(N5CCC(CN6CCN(c7ccc8c(c7)CN(C7CCC(=O)NC7=O)C8=O)CC6)CC5)c4)cc3F)nc12 (racemic)	CDK9 (Homo sapiens, UniProt P50750)	DC50	µM	0.0161
